molecular target: hGIPR (Homo sapiens); assay: Functional cAMP activity in the presence of 1% HSA; format: cell-based; conditions: read-out: cAMP Rel EC50, hGIPR
Starred links: 1 amine or outer side, 2 acyl side, 3 side chain; linkers in the order of their positions; H or OH if unused. Non-standard residues stand in square brackets, D forms with d. Groups on a side chain read outwards from the residue. No end group written: not given here. *: point of attachment. C18 diacid = O=C(O)CCCCCCCCCCCCCCCCC(=O)*; αMePhe(2-F) = C[C@](N)(Cc1ccccc1F)C(=O)O; γGlu = O=C(O)[C@H](CCC(=O)[*:2])N[*:1]; αMe4Pal = C[C@](N)(Cc1ccncc1)C(=O)O; αMeY = C[C@](N)(Cc1ccc(O)cc1)C(=O)O; 4Pal = N[C@@H](Cc1ccncc1)C(=O)O; αMeL = CC(C)C[C@](C)(N)C(=O)O; Orn = NCCC[C@H](N)C(=O)O; AEEA = NCCOCCOCC(=O)O; Aib = CC(C)(N)C(=O)O
measure: pEC50
Keep in mind that pEC50 stands for -log10 of concentration in molar terms.

What does the data say about its pEC50? Entry: H-Y[Aib]QGTFTSD[4Pal]S[Orn][αMeL]LD[Orn]K([γGlu-γGlu-γGlu-C18 diacid])AQ[αMe4Pal]AFIEYLIE[Aib]GPSSGAPPPSGSE-NH2 [Example 943]
7.64

Now consider H-Y[Aib]QGTFTSD[4Pal]SQ[αMeL]LDKK([γGlu-γGlu-C18 diacid])AQ[αMe4Pal]QFIE[αMeY]LIEGGPSSGAPPPSGS-NH2 [Example 934] and answer again.
7.55

Now consider H-Y[Aib]QGT[αMePhe(2-F)]TSD[4Pal]SI[αMeL]LD[Orn]K([γGlu-γGlu-C18 diacid])AQ[αMe4Pal]EFI[dE][αMeY]LAEGGPSSGAPPPSGS-NH2 [Example 646] and answer again.
8.96

Now consider Y[Aib]QGTFTSDFSK[αMeL]LDKK([AEEA-γGlu-C18 diacid])AQ[Aib]QFIEYLLAGGPSSGEPPPSEG-NH2 [Example 26] and answer again.
7.45

Now consider H-Y[Aib]QGTFTSD[4Pal]SQ[αMeL]LDKK([AEEA-γGlu-C18 diacid])AQ[αMe4Pal]AFIE[αMeY]LIEGGPSSGAPPPSGS-NH2 [Example 844] and answer again.
7.36

---

Target: hGIPR (Homo sapiens, UniProt P48546)
Sequence (P48546 22-466): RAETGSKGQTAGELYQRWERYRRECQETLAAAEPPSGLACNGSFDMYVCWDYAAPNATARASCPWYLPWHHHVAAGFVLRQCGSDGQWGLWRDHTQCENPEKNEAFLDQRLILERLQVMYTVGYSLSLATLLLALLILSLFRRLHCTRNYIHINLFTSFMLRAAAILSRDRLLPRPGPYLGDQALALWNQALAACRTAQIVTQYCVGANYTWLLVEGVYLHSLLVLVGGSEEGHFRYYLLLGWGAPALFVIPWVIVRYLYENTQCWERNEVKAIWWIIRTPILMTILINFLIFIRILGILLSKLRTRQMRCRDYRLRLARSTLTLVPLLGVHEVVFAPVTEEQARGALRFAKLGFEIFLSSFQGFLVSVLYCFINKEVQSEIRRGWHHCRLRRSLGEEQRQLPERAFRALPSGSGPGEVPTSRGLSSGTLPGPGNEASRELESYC
Experiment: Functional cAMP activation in the presence of 0.1% casein (no HSA);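 further: intracellular cAMP rise after 30 min at 37 °C read by HTRF against a standard curve, scaled between buffer alone (0%) and top control ligand concentration (100%), four-parameter fit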
Format: cell-based
Conditions: read-out: Relative cAMP EC50, hGIPR
Starred links: 1 amine or outer side, 2 acyl side, 3 side chain; linkers in the order of their positions; H or OH if unused. Non-standard residues stand in square brackets, D forms with d. Groups on a side chain read outwards from the residue. *: point of attachment. C18 diacid = O=C(O)CCCCCCCCCCCCCCCCC(=O)*; αMePhe(2-F) = C[C@](N)(Cc1ccccc1F)C(=O)O; γGlu = O=C(O)[C@H](CCC(=O)[*:2])N[*:1]; αMe4Pal = C[C@](N)(Cc1ccncc1)C(=O)O; αMeY = C[C@](N)(Cc1ccc(O)cc1)C(=O)O; 4Pal = N[C@@H](Cc1ccncc1)C(=O)O; αMeL = CC(C)C[C@](C)(N)C(=O)O; αMeS = C[C@](N)(CO)C(=O)O; Orn = NCCC[C@H](N)C(=O)O; AEEA = NCCOCCOCC(=O)O; Aib = CC(C)(N)C(=O)O
measure: pEC50
Keep in mind that pEC50 stands for -log10 of concentration in molar terms.

What does the data say about its pEC50? Entry: H-Y[Aib]QGT[αMePhe(2-F)]TSD[4Pal][αMeS]I[αMeL]LD[Orn]K([γGlu-γGlu-C18 diacid])AQ[Aib][Orn]FI[dE][αMeY]LSEGGPSSGEPPPSGQEE-NH2 [Example 570]
9.73

Now consider H-Y[Aib]QGT[αMePhe(2-F)]TSD[4Pal]SI[αMeL]LD[Orn]K([γGlu-γGlu-C18 diacid])AQ[αMe4Pal][Orn]FI[dE][αMeY]LIEGGPSSGEPPPEAE-NH2 [Example 684] and answer again.
11.07

Now consider H-Y[Aib]QGT[αMePhe(2-F)]TSD[4Pal][αMeS]I[αMeL]LD[Orn]K([AEEA-γGlu-C18 diacid])AQ[αMe4Pal]EFI[dE][αMeY]LVEGGPSSGEPPPSGSEE-NH2 [Example 736] and answer again.
10.85

---

target: human GLP1-R (Homo sapiens); test: GLP1-R internalization assay in HEK293 cells; assay type: cell-based; details: HEK293 cells expressing SNAP-GLP-1R; read-out: GLP1R Internalization EC50
Sequence (P43220 24-463): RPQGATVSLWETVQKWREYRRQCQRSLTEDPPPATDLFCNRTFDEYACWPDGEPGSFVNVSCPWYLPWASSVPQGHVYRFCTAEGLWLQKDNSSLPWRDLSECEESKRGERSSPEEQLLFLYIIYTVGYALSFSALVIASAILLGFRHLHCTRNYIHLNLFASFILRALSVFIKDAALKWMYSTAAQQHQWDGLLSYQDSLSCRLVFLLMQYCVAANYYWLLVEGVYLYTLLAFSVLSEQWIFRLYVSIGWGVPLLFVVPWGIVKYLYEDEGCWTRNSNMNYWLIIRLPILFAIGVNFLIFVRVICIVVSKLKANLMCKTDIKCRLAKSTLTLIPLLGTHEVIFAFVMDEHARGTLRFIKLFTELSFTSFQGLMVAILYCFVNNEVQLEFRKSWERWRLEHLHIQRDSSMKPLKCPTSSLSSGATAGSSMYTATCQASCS
Starred links: 1 amine or outer side, 2 acyl side, 3 side chain; linkers in the order of their positions; H or OH if unused. Non-standard residues stand in square brackets, D forms with d. Groups on a side chain read outwards from the residue. No end group written: not given here. *: point of attachment. C20 diacid = O=C(O)CCCCCCCCCCCCCCCCCCC(=O)*; C18 diacid = O=C(O)CCCCCCCCCCCCCCCCC(=O)*; γGlu = O=C(O)[C@H](CCC(=O)[*:2])N[*:1]; 4Pal = N[C@@H](Cc1ccncc1)C(=O)O; αMeL = CC(C)C[C@](C)(N)C(=O)O; Orn = NCCC[C@H](N)C(=O)O; AEEA = NCCOCCOCC(=O)O; Aib = CC(C)(N)C(=O)O
measure: pEC50
Keep in mind that pEC50 stands for -log10 of concentration in molar terms.

What does the data say about its pEC50? Entry: H-Y[Aib]QGTFTSDFS[Orn][αMeL]LDKK([AEEA-γGlu-C18 diacid])AQ[Aib]AFIEYLLE[Aib]G[4Pal]SSGAPPPSGS-NH2 [Example 242]
7.25

Now consider H-Y[Aib]QGTFTSDFS[Orn][αMeL]LDKK([AEEA-γGlu-C18 diacid])AQ[Aib]AFIEWLLEGGSSSGAPPPSGS-NH2 [Example 173] and answer again.
7.01

Now consider H-Y[Aib]QGTFTSDFS[Orn][αMeL]LDKK([AEEA-AEEA-γGlu-C20 diacid])AQ[Aib]AFIEYLLE[Aib]GPSSGAPPPSEG-NH2 [Example 71] and answer again.
7.23

Now consider Y[Aib]QGTFTSDFS[Orn][αMeL]LDKK([AEEA-γGlu-C18 diacid])AQ[Aib]AFIEYLLEGGPSSGAPPPSEG-NH2 [Example 50] and answer again.
7.52

Now consider H-Y[Aib]QGTFTSDFS[Orn][αMeL]LDKK([AEEA-AEEA-γGlu-C18 diacid])AQ[Aib]AFIEYLLE[Aib]G[4Pal]SSGAPPPSGS-NH2 [Example 183] and answer again.
7.00

Now consider H-Y[Aib]QGTFTSDFS[Orn][αMeL]LDKK([AEEA-AEEA-γGlu-C18 diacid])AQ[Aib]AFIEYLLEGGPSSGAPPPSGE-NH2 [Example 107] and answer again.
6.82

---

So I've got a bunch of substances here, and I need their pEC50 values.
molecular target: hGLP-1R (Homo sapiens); assay: Functional cAMP activity in the presence of 1% HSA; assay type: cell-based; conditions: read-out: cAMP Rel EC50, hGLP-1R
Sequence (P43220 24-463): as the sequence (P43220 24-463) above
Starred links: 1 amine or outer side, 2 acyl side, 3 side chain; linkers in the order of their positions; H or OH if unused. Non-standard residues stand in square brackets, D forms with d. Groups on a side chain read outwards from the residue. No end group written: not given here. *: point of attachment. C20 diacid = O=C(O)CCCCCCCCCCCCCCCCCCC(=O)*; C18 diacid = O=C(O)CCCCCCCCCCCCCCCCC(=O)*; αMePhe(2-F) = C[C@](N)(Cc1ccccc1F)C(=O)O; γGlu = O=C(O)[C@H](CCC(=O)[*:2])N[*:1]; αMe4Pal = C[C@](N)(Cc1ccncc1)C(=O)O; αMeY = C[C@](N)(Cc1ccc(O)cc1)C(=O)O; 4Pal = N[C@@H](Cc1ccncc1)C(=O)O; Aad = N[C@@H](CCCC(=O)O)C(=O)O; αMeL = CC(C)C[C@](C)(N)C(=O)O; αMeS = C[C@](N)(CO)C(=O)O; Orn = NCCC[C@H](N)C(=O)O; AEEA = NCCOCCOCC(=O)O; Aib = CC(C)(N)C(=O)O
Keep in mind that pEC50 stands for -log10 of concentration in molar terms.

What does the data say about its pEC50? Entry: H-Y[Aib]QGTFTSDFS[Orn][αMeL]LDKK([AEEA-γGlu-C18 diacid])AQ[Aib]AFIEWLLEGGTSSGAPPPSGS-NH2 [Example 176]
6.41

Now consider H-Y[Aib]QGT[αMePhe(2-F)]TSD[4Pal]SILLDKK([AEEA-γGlu-C18 diacid])AQ[Aib]AFIEYL[Aad]EGGPSSGAPPPSGTGE-NH2 [Example 663] and answer again.
7.10

Now consider H-Y[Aib]QGTFTSD[4Pal]SQ[αMeL]LDKK([γGlu-γGlu-C18 diacid])AQ[αMe4Pal]AFIEYLIE[Aib]GPSSGAPPPSGSGE-NH2 [Example 891] and answer again.
6.48

Now consider Y[Aib]QGT[αMePhe(2-F)]TSD[4Pal][αMeS]I[αMeL]LD[Orn]K([AEEA-γGlu-C18 diacid])AA[Aib]EFI[dE][αMeY]LIEGGPSSGAPPPSGGGE-NH2 [Example 745] and answer again.
7.54

Now consider Y[Aib]QGT[αMePhe(2-F)]TSD[4Pal]SI[αMeL]LD[Orn]K([AEEA-γGlu-C18 diacid])AQ[αMe4Pal]EFI[dE][αMeY]LIEGGPSSGAPPPSGE-NH2 [Example 614] and answer again.
7.48

Now consider H-Y[Aib]QGTFTSD[4Pal]SR[αMeL]LDKK([AEEA-γGlu-C18 diacid])AQ[αMe4Pal]AFIEYLIE[Aib]GESSGAPPPSGE-NH2 [Example 225] and answer again.
6.36

Now consider H-Y[Aib]QGT[αMePhe(2-F)]TSDYSILLDKQAAK([AEEA-AEEA-γGlu-C20 diacid])EFIEYLIEGGPSSGEPPPSEG-NH2 [Example 348] and answer again.
6.87

Now consider H-Y[Aib]QGTFTSDFSK[αMeL]LDKK([AEEA-γGlu-C18 diacid])AQ[Aib]AFIEYLIEGGESSGAPPPSGS-NH2 [Example 215] and answer again.
6.79

Now consider H-Y[Aib]QGT[αMePhe(2-F)]TSD[4Pal][αMeS]I[αMeL]LD[Orn]K([AEEA-γGlu-C18 diacid])AQ[αMe4Pal]EFI[dE][αMeY]LIEGGPSSGEPPPSGTGE-NH2 [Example 711] and answer again.
7.45

Now consider H-Y[Aib]QGTFTSD[4Pal]SQ[αMeL]LD[Orn]K([γGlu-γGlu-C18 diacid])AQ[αMe4Pal]AFIEYLIAGGPSSGEPPPSGS-NH2 [Example 1007] and answer again.
7.02

Now consider H-Y[Aib]QGTFTSD[4Pal]SQ[αMeL]LDKK([γGlu-γGlu-C18 diacid])AQ[αMe4Pal]AFIE[αMe4Pal]LIEGGPSSGAPPPSGSEE-NH2 [Example 957] and answer again.
6.13

FYI, the data here is from patent US20240270821A1.
